- System: carboxypeptidase G
- Method Notes: Carboxypeptidase G enantiospecific hydrolysis of folic acid derivatives (HPLC of released pteroic acid)
- Type: biochemical
- Experimental Setup: Tris buffer with ZnCl2, 37° C., 2 h; pyrofolates and monoesters first hydrolysed in 0.25 M NaOH; error about ±2-3%
Measured Endpoint: % Hydrolysis (%)

• Nc1nc2ncc(CN(C(=O)C(F)(F)F)c3ccc(C(=O)N4C(=O)CCC4C(=O)O)cc3)nc2c(=O)[nH]1 (stereo not drawn) = 49.5
• Nc1nc2ncc(CNc3ccc(C(=O)NC(CCC(=O)O)C(=O)O)cc3)nc2c(=O)[nH]1 (racemic) [D, L-25a] = 52.3
• COC(=O)CCC(NC(=O)c1ccc(NCc2cnc3nc(N)[nH]c(=O)c3n2)cc1)C(=O)O (racemic) [DL-33a, (DL)-methyl folate (γ)] = 54.4
